Data provenance is patent US7728158B2.

molecular target: PPAR-γ (Homo sapiens); construct: expressed in transfected cells; host or cells: CV-1 (African green monkey kidney); test: PPAR-γ reporter assay (GAL4 luciferase, CV-1 cells); assay type: cell-based; conditions: induction ratio of luciferase activity at 25 μM, activity without tested compound = 1, hGR-GAL4-hPPAR-γ
Sequence (P37231 204-505): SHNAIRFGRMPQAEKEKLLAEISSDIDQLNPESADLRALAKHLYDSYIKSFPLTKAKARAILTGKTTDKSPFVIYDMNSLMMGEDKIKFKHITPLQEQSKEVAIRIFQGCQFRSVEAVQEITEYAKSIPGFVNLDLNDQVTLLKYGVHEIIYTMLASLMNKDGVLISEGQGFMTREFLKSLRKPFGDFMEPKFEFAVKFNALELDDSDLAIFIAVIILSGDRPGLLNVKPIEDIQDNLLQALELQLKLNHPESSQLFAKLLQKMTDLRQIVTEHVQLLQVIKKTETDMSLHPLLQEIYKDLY
# PPAR-γ induction ratio per entry
result.type: PPAR-γ induction ratio

INSERT INTO results (compound, numeric_result) VALUES
  ('CCCCCCCCCCCC(=O)NC(C)(CC)C(=O)O (racemic) [Example 16]', 18.5),
  ('CCCCCCCCCCCCCC(=O)N[C@H](C(=O)O)[C@@H](C)CC [Example 25]', 27.4),
  ('CCCCCCCCCCCC(=O)N[C@H](C(=O)O)C(c1ccccc1)c1ccccc1 [Example 40]', 1.5),
  ('CCCCCCCCCCCC(=O)N[C@H](C(=O)O)c1ccccc1 [Example 36]', 8.7);
